tested on: Human immunodeficiency virus 1; assay: Antiviral activity against HIV1 replication in infected cells; assay type: functional, organism-based

{"Line notation": "COC(=O)N[C@H](C(=O)NN(Cc1ccccc1)C[C@](O)(Cc1ccccc1)C(=O)N[C@H]1c2ccccc2C[C@H]1O)C(C)(C)C", "Experimental system": "Human immunodeficiency virus 1", "Unit descriptor": "nM", "Comparator": ">", "EC50": 10000}
{"Line notation": "COC(=O)N[C@H](C(=O)NN(Cc1ccccc1)C[C@@](O)(Cc1ccccc1)C(=O)N[C@H]1c2ccccc2C[C@H]1O)C(C)(C)C", "Experimental system": "Human immunodeficiency virus 1", "Unit descriptor": "nM", "Comparator": "=", "EC50": 1900}

====

molecular target: Cathepsin D (Homo sapiens); experiment: Inhibition of human liver cathepsin D
Sequence (P07339 65-162 limits assumed): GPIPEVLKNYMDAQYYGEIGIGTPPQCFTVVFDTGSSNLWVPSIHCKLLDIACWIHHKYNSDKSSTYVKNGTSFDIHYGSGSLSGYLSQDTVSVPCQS
Sequence (P07339 169-412 limits assumed): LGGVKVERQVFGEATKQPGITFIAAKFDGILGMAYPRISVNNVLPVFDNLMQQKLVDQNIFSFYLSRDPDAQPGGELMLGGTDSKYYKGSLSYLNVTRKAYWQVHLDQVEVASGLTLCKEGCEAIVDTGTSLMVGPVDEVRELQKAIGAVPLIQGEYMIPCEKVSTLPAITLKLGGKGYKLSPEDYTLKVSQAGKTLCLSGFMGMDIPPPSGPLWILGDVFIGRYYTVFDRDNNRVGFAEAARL
Measured Ki of individual entries

{"Compound": "Cc1cccc(C)c1OCC(=O)NCC(O)(CCc1ccccc1)C(=O)N[C@@H](Cc1ccccc1)C(=O)N[C@H]1c2ccccc2C[C@H]1O (stereo in doubt; (A)-20)", "Ki": "> 10 µM"}
{"Compound": "Cc1cccc(C)c1OCC(=O)NC[C@@](O)(CCc1ccccc1)C(=O)N1CSC(C)(C)[C@@H]1C(=O)N[C@H]1c2ccccc2C[C@H]1O", "Ki": "> 10 µM"}
{"Compound": "Cc1cccc(C)c1OCC(=O)NCC(O)(CCc1ccccc1)C(=O)N1CCC[C@H]1C(=O)N[C@H]1c2ccccc2C[C@H]1O (stereo in doubt; (A)-19)", "Ki": "> 10 µM"}
{"Compound": "Cc1cccc(C)c1OCC(=O)N[C@@H](Cc1ccccc1)[C@H](O)C(=O)N1CSC(C)(C)[C@H]1C(=O)N[C@H]1c2ccccc2C[C@H]1O", "Ki": "0.002 µM"}
